# protocol_summary: Elimination half life in healthy human at 5 mg/kg, iv
# Assay type: ADME, organism-based
# Design: dose 5 mg/kg, route intravenous
# experimental_parameters: in vivo, read-out: beta t1/2

molecule	half-life
CCCCCCCCCCNCCN[C@@]1(C)C[C@H](O[C@H]2[C@H](Oc3c4cc5cc3Oc3ccc(cc3Cl)[C@@H](O)[C@@H](NC(=O)[C@@H](CC(C)C)NC)C(=O)N[C@@H](CC(N)=O)C(=O)N[C@H]5C(=O)N[C@H]3C(=O)N[C@H](C(=O)N[C@H](C(=O)O)c5cc(O)c(CNCP(=O)(O)O)c(O)c5-c5cc3ccc5O)[C@H](O)c3ccc(c(Cl)c3)O4)O[C@H](CO)[C@@H](O)[C@@H]2O)O[C@@H](C)[C@H]1O [TELAVANCIN]	> 7 h
